test system: nci-H460; assay: 72-h MTT cytotoxicity assay nci-H460; format: cell-based; conditions: Homo sapiens, NCI-H460, 72 h; Table 5; Lung
reported_endpoint: IC50 (nM)
The reply should be a number in nM, with the unit left off.

Consider the reported IC50 for these molecules:
- mol_smiles: "CC[C@@H](N)C(=O)Nc1nc(C)c(-c2ccnc(Nc3cccc([N+](=O)[O-])c3)n2)s1"
  reported_endpoint: "IC50"
  units_symbol: "nM"
  endpoint_value: 300
- mol_smiles: "Cc1nc(NC(=O)[C@H](N)[C@@H](C)O)sc1-c1ccnc(Nc2cccc([N+](=O)[O-])c2)n1"
  reported_endpoint: "IC50"
  units_symbol: "nM"
  endpoint_value: 1200
- mol_smiles: "Cc1nc(N)sc1-c1ccnc(Nc2ccc(N3CCOCC3)cc2)n1"
  reported_endpoint: "IC50"
  units_symbol: "nM"
  endpoint_value: 200

Then there is this molecule:
## Task Form: Entry = CNc1nc(C)c(-c2ccnc(Nc3ccc(N4CCN(Cc5ccccc5)CC4)cc3)n2)s1 | System = nci-H460 | IC50 = ____
## Result 700

* * *

Below: a set of entries, each annotated with reported IC50.
biological target: ERK2 (extracellular-signal-regulated kinase 2) (Homo sapiens, UniProt P28482); test: Kinase assay ERK2; details: Table 3 selectivity panel; read-out: Kinase specificity IC50 ERK2
Sequence (P28482 whole entry, species assumed): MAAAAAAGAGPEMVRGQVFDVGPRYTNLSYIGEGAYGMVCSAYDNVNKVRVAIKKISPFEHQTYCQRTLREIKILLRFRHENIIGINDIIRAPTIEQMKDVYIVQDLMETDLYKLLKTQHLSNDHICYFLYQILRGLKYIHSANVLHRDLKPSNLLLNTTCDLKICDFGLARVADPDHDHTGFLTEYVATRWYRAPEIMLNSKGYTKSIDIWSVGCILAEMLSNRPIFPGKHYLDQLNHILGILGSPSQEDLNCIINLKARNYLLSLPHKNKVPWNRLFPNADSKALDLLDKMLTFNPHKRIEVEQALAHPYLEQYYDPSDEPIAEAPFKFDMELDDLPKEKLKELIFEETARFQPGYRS

Consider the reported IC50 for these compounds:
- mol_smiles: "Cc1nc(NC(=O)[C@H](N)[C@@H](C)O)sc1-c1ccnc(Nc2cccc([N+](=O)[O-])c2)n1"
  test_system: "ERK2 (extracellular-signal-regulated kinase 2) (Homo sapiens, UniProt P28482)"
  IC50: "> 100 µM"
- mol_smiles: "CC[C@@H](N)C(=O)Nc1nc(C)c(-c2ccnc(Nc3cccc([N+](=O)[O-])c3)n2)s1"
  test_system: "ERK2 (extracellular-signal-regulated kinase 2) (Homo sapiens, UniProt P28482)"
  IC50: "> 100 µM"
- mol_smiles: "CNc1nc(C)c(-c2ccnc(Nc3ccc(N4CCOCC4)cc3)n2)s1"
  test_system: "ERK2 (extracellular-signal-regulated kinase 2) (Homo sapiens, UniProt P28482)"
  IC50: "> 100 µM"

## Task Form: Entry = CNc1nc(C)c(-c2ccnc(Nc3ccc(N4CCN(Cc5ccccc5)CC4)cc3)n2)s1 | System = ERK2 (extracellular-signal-regulated kinase 2) (Homo sapiens, UniProt P28482) | IC50 = ____
## Result > 100 µM

* * *

Below: a set of entries, each annotated with reported log10 of IC50.
biological target: CDK2/cyclin A (Homo sapiens, UniProt P24941); experiment: Kinase assay CDK2/cyclin A; type: biochemical; details: Table 2; read-out: Kinase Inhibition IC50 CDK2 cyclin A
Please note: log10 values; quantity IC50; unit nM.

- compound: "Cc1nc(N2CCOCC2)sc1-c1ccnc(Nc2ccc(N3CCOCC3)cc2)n1 [Compound 56]"
  log10 of IC50: 4.83
- compound: "COc1ccc(Nc2nccc(-c3sc(NC(=O)CCN4CCOCC4)nc3C)n2)cc1 [Compound 38]"
  log10 of IC50: 2.76
- compound: "CNc1nc(C)c(-c2ccnc(Nc3ccc(OCCOC)c([N+](=O)[O-])c3)n2)s1 [Compound 77]"
  log10 of IC50: 3.00
- compound: "CNc1nc(C)c(-c2ccnc(Nc3ccc(N4CCN(Cc5ccccc5)CC4)cc3)n2)s1 [Compound 11]"
  log10 of IC50: 3.34

## Task Which log10 of IC50 value is on record for Cc1nc(NC(=O)CCN2CCOCC2)sc1-c1ccnc(Nc2ccc(Cl)cc2)n1 [Compound 35] ?
## Result 3.48

## Task Which log10 of IC50 value is on record for Cc1nc(C)c(-c2ccnc(Nc3ccc(Cl)c(CO)c3)n2)s1 [Compound 72] ?
## Result 4.08

## Task Which log10 of IC50 value is on record for Cc1nc(N2CCOCC2)sc1-c1ccnc(Nc2cccc([N+](=O)[O-])c2)n1 [Compound 71] ?
## Result 0.78

## Task Which log10 of IC50 value is on record for Cc1c(-c2ccnc(Nc3ccc(N4CCOCC4)cc3)n2)sc(=O)n1C [Compound 92] ?
## Result 3.08
